# target-or-test-system: human MTAP (Homo sapiens, UniProt Q13126)
# Construct: made in house
# Sequence (Q13126 whole entry): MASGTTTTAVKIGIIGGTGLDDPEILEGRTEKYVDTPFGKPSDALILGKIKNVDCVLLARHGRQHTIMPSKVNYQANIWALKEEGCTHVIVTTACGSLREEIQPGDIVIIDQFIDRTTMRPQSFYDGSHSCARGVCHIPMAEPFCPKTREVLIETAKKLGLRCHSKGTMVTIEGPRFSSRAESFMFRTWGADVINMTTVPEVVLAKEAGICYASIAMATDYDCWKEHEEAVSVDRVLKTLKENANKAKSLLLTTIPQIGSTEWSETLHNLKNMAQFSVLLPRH
# protocol-details: Inhibition of human MTAP, continuous spectrophotometric assay
# Format: biochemical
Documented Ki across a set of compounds
experimental-readout: Ki (nM)

>>> print(df.to_string())
                                   compound                     target_or_test_system  limit_operator  readout_number
0  C=C[C@@H]1CN(Cc2c[nH]c3c(N)ncnc23)C[C@H]1O (racemic)  human MTAP (Homo sapiens, UniProt Q13126)               =             8.7
1  CC(C)C[C@@H]1CN(Cc2c[nH]c3c(N)ncnc23)C[C@H]1O (racemic)  human MTAP (Homo sapiens, UniProt Q13126)               =               6
2  C=CC[C@@H]1CN(Cc2c[nH]c3c(N)ncnc23)C[C@H]1O (racemic)  human MTAP (Homo sapiens, UniProt Q13126)               =            14.3
3  CC[C@H]1CN(Cc2c[nH]c3c(N)ncnc23)C[C@H]1O (racemic)  human MTAP (Homo sapiens, UniProt Q13126)               =              34
4  CCC(CC)[C@@H]1CN(Cc2c[nH]c3c(N)ncnc23)C[C@H]1O (racemic)  human MTAP (Homo sapiens, UniProt Q13126)               >            5000

---

# target-or-test-system: E. coli MTAN (Escherichia coli, UniProt P0AF12)
# Construct: made in house
# Sequence (P0AF12 whole entry): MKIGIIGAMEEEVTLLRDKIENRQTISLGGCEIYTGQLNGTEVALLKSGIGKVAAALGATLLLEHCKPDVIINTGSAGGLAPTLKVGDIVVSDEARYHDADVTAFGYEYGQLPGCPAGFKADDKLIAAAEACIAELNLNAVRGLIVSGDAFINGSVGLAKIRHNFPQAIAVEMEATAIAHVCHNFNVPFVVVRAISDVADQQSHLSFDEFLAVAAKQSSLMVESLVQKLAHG
# protocol-details: biochemical
# Assay type: biochemical
# setup-conditions: 25° C., pH 7.5, MTA as substrate; read-out: Inhibition (Ki) E. coli MTAN
Documented Ki across a set of compounds
experimental-readout: Ki (nM)

>>> df
                                   compound                     target_or_test_system  readout_number
0  CC[C@H]1CN(Cc2c[nH]c3c(N)ncnc23)C[C@H]1O (racemic)  E. coli MTAN (Escherichia coli, UniProt P0AF12)             1.8
1  C#C[C@@H]1CN(Cc2c[nH]c3c(N)ncnc23)C[C@H]1O (racemic)  E. coli MTAN (Escherichia coli, UniProt P0AF12)            0.39
2  CCCC[C@@H]1CN(Cc2c[nH]c3c(N)ncnc23)C[C@H]1O (racemic)  E. coli MTAN (Escherichia coli, UniProt P0AF12)           0.051
3  Nc1ncnc2c(CN3C[C@@H](O)[C@H](c4c[nH]nn4)C3)c[nH]c12 (racemic)  E. coli MTAN (Escherichia coli, UniProt P0AF12)               2

---

# target-or-test-system: E. coli MTAN (Escherichia coli)
# Construct: made in house
# protocol-details: biochemical
# Assay type: biochemical
experimental-readout: Ki (pM)

>>> df
                                   compound  experimental_readout  readout_number
0  CC[C@@H]1CN(Cc2c[nH]c3c(N)ncnc23)C[C@H]1O (racemic)                    Ki             310
1  CCC(CC)[C@@H]1CN(Cc2c[nH]c3c(N)ncnc23)C[C@H]1O (racemic)                    Ki             700
